These measurements were taken from patent US5298508A.

# target desc: A1 adenosine receptors (Rattus norvegicus)
# Construct: A1 adenosine receptors in rat cerebral cortex membranes; from tissue; host or cells: rat cerebral cortex membranes
# Sequence (P25099 whole entry): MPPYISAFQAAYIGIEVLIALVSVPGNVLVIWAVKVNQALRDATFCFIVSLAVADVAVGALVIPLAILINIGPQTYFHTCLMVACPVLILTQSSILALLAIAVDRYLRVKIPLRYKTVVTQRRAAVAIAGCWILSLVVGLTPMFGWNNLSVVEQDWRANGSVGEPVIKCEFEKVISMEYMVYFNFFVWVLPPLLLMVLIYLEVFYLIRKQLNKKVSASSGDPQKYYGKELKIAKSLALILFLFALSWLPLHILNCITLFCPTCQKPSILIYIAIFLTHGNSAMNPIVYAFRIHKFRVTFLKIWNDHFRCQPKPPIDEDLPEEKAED
# assay text: inhibition of binding of [3H]N6-phenylisopropyladenosine ([3H]PIA) to A1 adenosine receptors in rat cerebral cortex membranes
# assay setup: read-out: Ki at central A1 receptors, rat
Label Condition met when Ki is strictly below 5 nM; otherwise label Condition not met.

INSERT INTO results (molecule, discrete_label) VALUES
  ('O=C(Cc1ccc(NC(=O)Cc2ccc(Nc3ncnc4c3ncn4[C@@H]3O[C@H](CO)[C@@H](O)[C@H]3O)cc2)cc1)NCCNC(=S)Nc1ccc(Br)cc1 [Compound 33]', 'Condition met'),
  ('CCCn1c(=O)c2nc(-c3ccc(OCC(=O)NCCNC(=O)CCCN4C(=O)C=CC4=O)cc3)[nH]c2n(CCC)c1=O [Compound 23]', 'Condition not met'),
  ('O=C(Cc1ccc(NC(=O)Cc2ccc(Nc3ncnc4c3ncn4[C@@H]3O[C@H](CO)[C@@H](O)[C@H]3O)cc2)cc1)NCCNC(=S)Nc1c(F)c(F)c(F)c(F)c1F [Compound 32]', 'Condition met'),
  ('O=C(Cc1ccc(NC(=O)Cc2ccc(Nc3ncnc4c3ncn4[C@@H]3O[C@H](CO)[C@@H](O)[C@H]3O)cc2)cc1)NCCNC(=S)Nc1ccc(S(=O)(=O)O)cc1 [Compound 35]', 'Condition not met'),
  ('O=C(Cc1ccc(NC(=O)Cc2ccc(Nc3ncnc4c3ncn4[C@@H]3O[C@H](CO)[C@@H](O)[C@H]3O)cc2)cc1)NCCNC(=S)Nc1ccc([N+](=O)[O-])cc1 [Compound 34]', 'Condition met'),
  ('O=C(Cc1ccc(NC(=O)Cc2ccc(Nc3ncnc4c3ncn4[C@@H]3O[C@H](CO)[C@@H](O)[C@H]3O)cc2)cc1)NCCNC(=S)Nc1ccccc1F [Compound 31b]', 'Condition not met'),
  ('Cc1ccc(NC(=S)NCCNC(=O)Cc2ccc(NC(=O)Cc3ccc(Nc4ncnc5c4ncn5[C@@H]4O[C@H](CO)[C@@H](O)[C@H]4O)cc3)cc2)cc1 [Compound 29]', 'Condition met'),
  ('CCCn1c(=O)c2nc(-c3ccc(OCC(=O)NCCN=C(S)Nc4ccc(F)cc4)cc3)[nH]c2n(CCC)c1=O [Compound 8]', 'Condition not met'),
  ('CCCn1c(=O)c2nc(-c3ccc(OCC(=O)NCCN=C(S)Nc4ccc(S(=O)(=O)O)cc4)cc3)[nH]c2n(CCC)c1=O [Compound 12]', 'Condition not met'),
  ('O=C(Cc1ccc(Nc2ncnc3c2ncn3[C@@H]2O[C@H](CO)[C@@H](O)[C@H]2O)cc1)Nc1ccc(CC(=O)ON2C(=O)CCC2=O)cc1 [Compound 25]', 'Condition not met');
